EC50: recorded values
Test system: Plasmodium falciparum
Experiment: NOVARTIS: Inhibition of Plasmodium falciparum 3D7 (drug-susceptible) proliferation in erythrocyte-based infection assay
Format: functional, organism-based
Experimental Setup: Plasmodium falciparum, 3D7

Molecule | Value Units | Value Prefix | EC50
Cc1ccc(-c2nn(CC(=O)Nc3ccc(OC(F)(F)F)cc3)c(=O)c3ccccc23)cc1S(=O)(=O)N1CCCCC1 | nM | > | 1250
CCCCN(CC(=O)Nc1cc(C(C)(C)C)nn1-c1ccc(Cl)cc1)C(=O)c1ccc(OC)cc1 | nM | > | 1390
COc1ccccc1Cn1c(SCc2ccc(Cl)cc2)nc2ccc(Br)cc2c1=O | nM | > | 1160
CCCCCCCCNC(C)C(O)c1ccc(SC(C)C)cc1 (stereo not given) [SULOCTIDIL] | nM | = | 82.4
CCC(C(=O)NCCCCNc1ccnc2cc(Cl)ccc12)c1ccccc1 (stereo not given) | nM | = | 288
N#Cc1cc(-c2cccc(C(F)(F)F)c2)cn(Cc2c(Cl)cccc2Cl)c1=O | nM | > | 7430
CCCCNC(=O)N(CCCC(C)Nc1cc(OC)cc2cccnc12)Cc1ccc(OC)c(OC)c1 (stereo not given) | nM | = | 1260
CCOc1ccc2nccc([C@@H](O)[C@@H]3C[C@@H]4CCN3C[C@@H]4CC)c2c1 [ETHYLHYDROCUPREINE] | nM | = | 31.8
CCc1cc2c(NCCN3CCCCC3)ncnc2s1 | nM | = | 1320
CCN1CCN(Cc2c(O)ccc3c(=O)c(Oc4ccccc4Br)c(C(F)(F)F)oc23)CC1 | nM | = | 1390
O=C(NC(=S)Nc1ccc(-c2nc3ccccc3s2)cc1)c1ccc(S(=O)(=O)N2CCCC2)cc1 | nM | = | 2050
CC(C)OC(=O)NC(Nc1ccccc1)C(Cl)(Cl)Cl (stereo not given) | nM | > | 1080
FC(F)(F)c1ccc(-c2nc(C34CC5CC(CC(C5)C3)C4)cs2)cc1 | nM | = | 1570
C=CCc1cc([N+](=O)[O-])cc2c1OC1(C=C2)N(c2ccccc2)c2ccccc2C1(C)C (stereo not given) | nM | = | 396
CCN(CC)CCCNC(=S)N(Cc1ccc(F)cc1)Cc1cc2cc(C)cc(C)c2[nH]c1=O | nM | = | 2760
Cc1cc(C)c2nc(SCC(=O)Nc3ccc4c(c3)OCCO4)cc(C)c2c1 | nM | > | 1250
O=C1NC(=Nc2ccccc2)/C(=C/c2ccc(O)cc2)S1 | nM | > | 1250
O=[N+]([O-])c1ccc(C=NNc2nc(Nc3ccccc3)nc(Nc3ccccc3)n2)o1 | nM | = | 625
O=S(=O)(NCCNc1ncnc2scc(-c3ccccc3)c12)c1ccc(Cl)c(Cl)c1 | nM | = | 290
Cc1cc(NCCN2CCCCC2)c2ccc3ccccc3c2n1 | nM | = | 44.1
COc1ccc(CCNC2(Cc3ccccc3)CC(C)N(C)CC2C)cc1OC (stereo not given) | nM | = | 620
CCCCCN(C(=O)Nc1ccccc1OC)C(CC)c1nc2ccccc2c(=O)n1-c1ccccc1OC (stereo not given) | nM | = | 780
CCOC(=O)c1cnc2ccc(C(C)C)cc2c1O | nM | = | 1150
COCCOC(=O)C1=C(C)NC2=C(C(=O)CC(c3ccc(OC)c(OC)c3)C2)C1c1ccc(F)cc1 (stereo not given) | nM | = | 38.2
OC1(c2ccc3ccccc3c2)c2c(c3ccccc3c3ccccc23)C2=NCCN21 (stereo not given) | nM | = | 252
CCC(C)NC(=O)C1CSC(c2cccc(F)c2)N1C(=O)c1cc(OC)c(OC)c(OC)c1 (stereo not given) | nM | > | 1250
COC(=O)C1=C(C)NC2=C(C(=O)CC(c3ccccc3Cl)C2)C1c1ccc(OC)c(OC)c1 (stereo not given) | nM | = | 1290
O=C(COC(=O)c1ccc2c(c1)C(=O)N(c1ccc3ccccc3c1)C2=O)c1ccc(Br)cc1 | nM | > | 919
Cc1ccc2c(C)nc(Nc3nc(C)cc(-c4ccccc4)n3)nc2c1 | nM | = | 975
CC(=NOC(=O)c1ccco1)c1cnccn1 | nM | = | 1250

All values here come from ChEMBL document CHEMBL1156829.
